System: Escherichia coli
PROTOCOL: Antibacterial activity against Escherichia coli ATCC 25922 assessed as growth inhibition incubated for 18 hrs by broth dilution method
Type: functional
MEASUREMENT_CONDITIONS: ATCC 25922, 18 h
PROPERTY_MEASURED: MIC

Solved entries (count: 3):
{"COMPOUND": "O=C(NCCCNCCCCNCCCNC(=O)C(=O)c1c[nH]c2ccc(Cl)cc12)C(=O)c1c[nH]c2ccc(Cl)cc12.O=C(O)C(F)(F)F.O=C(O)C(F)(F)F", "MEASURED": "> 200 µM"}
{"COMPOUND": "COC(=O)c1ccc2c(C(=O)C(=O)NCCCNCCCCNCCCNC(=O)C(=O)c3c[nH]c4cc(C(=O)OC)ccc34)c[nH]c2c1.O=C(O)C(F)(F)F.O=C(O)C(F)(F)F", "MEASURED": "> 200 µM"}
{"COMPOUND": "O=C(N[C@H](CO)[C@H](O)c1ccc([N+](=O)[O-])cc1)C(Cl)Cl [CHLORAMPHENICOL]", "MEASURED": "> 200 µM"}

Specify reported MIC for the compound shown: O=C(NCCCNCCCCNCCCNC(=O)C(=O)c1c[nH]c2cc(F)ccc12)C(=O)c1c[nH]c2cc(F)ccc12.O=C(O)C(F)(F)F.O=C(O)C(F)(F)F
> 200 µM

Specify reported MIC for the compound shown: COc1ccc2c(C(=O)C(=O)NCCCNCCCCNCCCNC(=O)C(=O)c3c[nH]c4cc(OC)ccc34)c[nH]c2c1
> 100 µM

Specify reported MIC for the compound shown: O=C(NCCCNCCCCNCCCNC(=O)C(=O)c1c[nH]c2ccccc12)C(=O)c1c[nH]c2ccccc12
> 100 µM
